Measured values drawn from patent US20260297080A1 for this set.

target_or_system: CDK2/Cyclin E1 (Homo sapiens, UniProt P24941)
assay_comment: CDK2/Cyclin E1 Biochemical Assay (TR-FRET), 0.060 mM ATP
experimental_context: 0.15 μM Rb (Ser780)-biotin substrate, pH7.0, 60 min preincubation, 120 min reaction, room temperature
assay_endpoint: IC50 (nM)
Your answer should be a plain number; it is taken to be in nM.

Task item: Supply IC50 value. Item: CC(C)NC(=O)O[C@H]1CC[C@@H](c2cc(Nc3ccc4c(c3Cl)CNS4(=O)=O)n[nH]2)C1 (single isomer, unassigned) [Example 38a]
Reply: 38

Task item: Determine from records and report IC50 for O=C(NC12CC(C1)C2)O[C@H]1CC[C@@H](c2cc(Nc3ccc4c(c3F)CNS4(=O)=O)n[nH]2)C1 (relative stereo)
Reply: 0.3

Task item: Write down IC50 measured for item CC(C)NC(=O)O[C@H]1CC[C@@H](c2cc(Nc3ccc4c(c3F)CS(=O)(=O)N4C3CC3)n[nH]2)C1 (single isomer, unassigned) [Example 275a]
Reply: 8.4

Task item: Look up IC50 of CC(C)NC(=O)O[C@H]1CC[C@@H](c2cc(Nc3ccc4c(c3F)CN(C3CCN(C)C3=O)S4(=O)=O)n[nH]2)C1 (relative stereo) and report it.
Reply: 6.3

Task item: Note down IC50 recorded for COCC1(NC(=O)O[C@H]2CC[C@@H](c3cc(Nc4ccc5c(c4F)CNS5(=O)=O)n[nH]3)C2)CC1 (single isomer, unassigned) [Example 158b]
Reply: 3.3

Task item: # return recorded IC50 for input CC(C)NC(=O)O[C@H]1CC[C@@H](c2cc(Nc3ccc4c(c3)S(=O)(=O)NC4C)[nH]n2)C1 (single isomer, unassigned) [Example 5b]
Reply: 1

* * *

target_or_system: CDK2/Cyclin E1 (Homo sapiens, UniProt P24941)
assay_comment: CDK2/Cyclin E1 Biochemical Assay (TR-FRET), 0.060 mM ATP
experimental_context: 0.15 μM Rb (Ser780)-biotin substrate, pH7.0, 60 min preincubation, 120 min reaction, room temperature
assay_endpoint: IC50 (nM)
Express the result in nM but write the number alone.

Task item: Hello, please tell me recorded IC50 for this one: CCN1Cc2c(ccc(Nc3cc([C@@H]4CC[C@H](OC(=O)NC(C)C)C4)[nH]n3)c2F)S1(=O)=O (relative stereo) [Example 60]
Reply: 9.2

Task item: Read off the recorded IC50 for CC(C)NC(=O)O[C@H]1CC[C@@H](c2cc(Nc3cc4c(cc3F)S(=O)(=O)N(C)C4)n[nH]2)C1 (relative stereo) [Example 45]
Reply: 181

Task item: Please supply the value of reported IC50 for the item CC[C@H](C)NC(=O)O[C@H]1CC[C@@H](c2cc(Nc3ccc4c(c3F)CN(CCO)S4(=O)=O)n[nH]2)C1 (relative stereo) [Example 127]
Reply: 1.9

* * *

target_or_system: CDK2/Cyclin E1 (Homo sapiens, UniProt P24941)
assay_comment: CDK2/Cyclin E1 Biochemical Assay (TR-FRET), 0.060 mM ATP
experimental_context: 0.15 μM Rb (Ser780)-biotin substrate, pH7.0, 60 min preincubation, 120 min reaction, room temperature
Kindly supply the reported IC50 values for the records listed here.
I only need the number, in nM, no unit after it.

Task item: Provide IC50 value for the following molecule: O=C(O[C@H]1CC[C@@H](c2cc(Nc3ccc4c(c3)CS(=O)(=O)N4)n[nH]2)C1)N1CCOCC1 (relative stereo)
Reply: 9.7

Task item: Answer with reported IC50 of CCCNC(=O)O[C@H]1CC[C@@H](c2cc(Nc3cc4c(cc3F)NS(=O)(=O)C4)n[nH]2)C1 (relative stereo)
Reply: 64

Task item: Give the measured IC50 for CC[C@H](C)NC(=O)O[C@H]1CC[C@@H](c2cc(Nc3ccc4c(c3F)CS(=O)(=O)N4C3COC3)n[nH]2)C1 (single isomer, unassigned) [Example 261b]
Reply: 0.7

Task item: Give a short answer stating reported IC50 for [2H]C([2H])([2H])C1c2cc(Nc3cc([C@@H]4CC[C@H](OC(=O)NCCC)C4)[nH]n3)cc(F)c2N(C([2H])([2H])[2H])S1(=O)=O (relative stereo) .
Reply: 8.3

Task item: Identify the reported IC50 for the following entry. CC(C)NC(=O)O[C@H]1CC[C@@H](c2cc(Nc3ccc4c(c3F)CN(C3CCCNC3=O)S4(=O)=O)n[nH]2)C1 (relative stereo)
Reply: 7.8

Task item: Give me measured IC50, please, for this molecule: O=C(O[C@H]1CC[C@@H](c2cc(Nc3ccc4c(c3F)CNS4(=O)=O)n[nH]2)C1)N1CCOCC1 (relative stereo)
Reply: 45

Task item: Complete the entry with IC50 for CC1(NC(=O)O[C@H]2CC[C@@H](c3cc(Nc4ccc5c(c4F)CNS5(=O)=O)n[nH]3)C2)COC1 (racemic) [Example 164]
Reply: 5

Task item: Answer with the recorded IC50 of CC(C)NC(=O)O[C@H]1CC[C@@H](c2cc(Nc3ccc4c(c3)CC(=O)NS4(=O)=O)n[nH]2)C1 (relative stereo) only.
Reply: 10

Task item: Consider the molecule CC(=O)N1CC(CN2Cc3c(ccc(Nc4cc([C@@H]5CC[C@H](OC(=O)NC(C)C)C5)[nH]n4)c3F)S2(=O)=O)C1 (relative stereo) . State its measured IC50.
Reply: 9.6

Task item: Read off the recorded IC50 for COCCN1Cc2ccc(Nc3cc([C@@H]4CC[C@H](OC(=O)NC(C)C)C4)[nH]n3)c(F)c2S1(=O)=O (relative stereo)
Reply: 9.3

Task item: Determine its reported IC50: CC1(NC(=O)O[C@H]2CC[C@@H](c3cc(Nc4ccc5c(c4F)CS(=O)(=O)N5C4COC4)n[nH]3)C2)CC1 (relative stereo)
Reply: 1.3

* * *

target_or_system: CDK2/Cyclin E1 (Homo sapiens)
assay_comment: CDK2/Cyclin E1 Biochemical Assay (TR-FRET), 0.060 mM ATP
experimental_context: 0.15 μM Rb (Ser780)-biotin substrate, pH7.0, 60 min preincubation, 120 min reaction, room temperature
Method: CDK2/Cyclin E1 and CDK1/Cyclin B1 Biochemical Assays Compounds disclosed herein were tested for inhibition of CDK2/Cyclin E1 or CDK1/Cyclin B1 kinase in an assay based on the time-resolved fluorescence-resonance energy transfer (TR-FRET) methodology. […] Plates were incubated at room temperature for 60 minutes, and the TR-FRET signals (ex337 nm, em665 nm/620 nm) were recorded on a PHERAstar FSX plate reader (BMG Labtech). […]
assay_endpoint: IC50 (nM)
Provide the reading as a plain figure in nM.

Task item: Answer with reported IC50 of COCC(C)NC(=O)O[C@H]1CC[C@@H](c2cc(Nc3ccc4c(c3)CS(=O)(=O)N4C)n[nH]2)C1 (relative stereo)
Reply: 2

Task item: Read the entry CC(C)NC(=O)O[C@H]1CC[C@@H](c2cc(Nc3ccc4c(c3F)CS(=O)(=O)N4C3COC3)n[nH]2)C1 (single isomer, unassigned) [Example 259a] and write its reported IC50.
Reply: 5.4

Task item: Provide only the value of recorded IC50 for CC(C)(CO)NC(=O)O[C@H]1CC[C@@H](c2cc(Nc3ccc4c(c3F)CNS4(=O)=O)n[nH]2)C1 (relative stereo)
Reply: 2.7

Task item: Assign IC50 to the following record: O=C(NCCC(F)(F)F)O[C@H]1CC[C@@H](c2cc(Nc3ccc4c(c3F)CNS4(=O)=O)n[nH]2)C1 (racemic) [Example 154]
Reply: 1.7

Task item: Identify measured IC50 corresponding to CCCNC(=O)O[C@@H]1CC[C@H](c2cc(Nc3ccc4c(c3F)CS(=O)(=O)N4CC(F)(F)F)n[nH]2)C1 [Example 266a]
Reply: 3.3

* * *

target_or_system: CDK1/Cyclin B1 (Homo sapiens)
Sequence (P06493 whole entry): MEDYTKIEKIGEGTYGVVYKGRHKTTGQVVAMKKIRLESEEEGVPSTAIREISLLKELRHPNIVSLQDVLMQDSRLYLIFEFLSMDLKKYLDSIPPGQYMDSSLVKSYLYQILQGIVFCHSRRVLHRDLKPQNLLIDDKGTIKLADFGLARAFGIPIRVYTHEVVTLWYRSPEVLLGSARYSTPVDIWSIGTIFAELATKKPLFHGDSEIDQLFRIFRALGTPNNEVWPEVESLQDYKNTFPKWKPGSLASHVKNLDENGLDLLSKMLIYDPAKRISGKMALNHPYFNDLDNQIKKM
Sequence (P14635 whole entry partner): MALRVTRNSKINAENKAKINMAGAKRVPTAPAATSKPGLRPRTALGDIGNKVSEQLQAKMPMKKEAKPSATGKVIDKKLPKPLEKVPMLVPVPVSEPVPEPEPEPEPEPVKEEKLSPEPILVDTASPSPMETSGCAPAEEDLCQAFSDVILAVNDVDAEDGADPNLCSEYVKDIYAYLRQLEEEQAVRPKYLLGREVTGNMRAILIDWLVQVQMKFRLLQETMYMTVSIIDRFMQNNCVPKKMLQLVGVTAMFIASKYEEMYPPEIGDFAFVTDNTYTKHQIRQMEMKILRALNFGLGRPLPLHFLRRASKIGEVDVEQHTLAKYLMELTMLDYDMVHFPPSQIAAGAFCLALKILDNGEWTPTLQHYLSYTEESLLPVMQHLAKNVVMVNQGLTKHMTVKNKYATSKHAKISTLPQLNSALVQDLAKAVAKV
assay_comment: CDK1/Cyclin B1 Biochemical Assay (TR-FRET), 0.015 mM ATP
experimental_context: 0.15 μM Rb (Ser780)-biotin substrate, pH7.0, 60 min preincubation, 120 min reaction, room temperature
Assignment: determine reported pIC50 for the given compounds.
Just so you know, pIC50 here is -log10 of the concentration in molar units; reply with that number alone.

Task item: Kindly indicate its recorded pIC50. Item: CC[C@H](C)NC(=O)O[C@H]1CC[C@@H](c2cc(Nc3cc4c(cc3F)S(=O)(=O)NC4)n[nH]2)C1 (relative stereo)
Reply: 6.89

Task item: Report pIC50, nothing else, for this compound: [2H]C([2H])([2H])N1c2c(F)cc(Nc3cc([C@@H]4CC[C@H](OC(=O)NCCC)C4)[nH]n3)cc2CS1(=O)=O (single isomer, unassigned) [Example 290b]
Reply: 7.03

Task item: Supply reported pIC50 belonging to this compound: CC(C)NC(=O)O[C@H]1CC[C@@H](c2cc(Nc3ccc4c(c3F)NS(=O)(=O)C4)n[nH]2)C1 (relative stereo)
Reply: 6.83
